log10 IC50 for assorted compounds
target: Epidermal growth factor receptor (Homo sapiens, UniProt P00533, L858R/T790M); test: Inhibition of EGFR L858R/T790M double mutant (unknown origin) measured after 60 mins by ADP-Glo kinase based luminescence assay
Sequence (P00533 25-1210 T790M/L858R limits assumed): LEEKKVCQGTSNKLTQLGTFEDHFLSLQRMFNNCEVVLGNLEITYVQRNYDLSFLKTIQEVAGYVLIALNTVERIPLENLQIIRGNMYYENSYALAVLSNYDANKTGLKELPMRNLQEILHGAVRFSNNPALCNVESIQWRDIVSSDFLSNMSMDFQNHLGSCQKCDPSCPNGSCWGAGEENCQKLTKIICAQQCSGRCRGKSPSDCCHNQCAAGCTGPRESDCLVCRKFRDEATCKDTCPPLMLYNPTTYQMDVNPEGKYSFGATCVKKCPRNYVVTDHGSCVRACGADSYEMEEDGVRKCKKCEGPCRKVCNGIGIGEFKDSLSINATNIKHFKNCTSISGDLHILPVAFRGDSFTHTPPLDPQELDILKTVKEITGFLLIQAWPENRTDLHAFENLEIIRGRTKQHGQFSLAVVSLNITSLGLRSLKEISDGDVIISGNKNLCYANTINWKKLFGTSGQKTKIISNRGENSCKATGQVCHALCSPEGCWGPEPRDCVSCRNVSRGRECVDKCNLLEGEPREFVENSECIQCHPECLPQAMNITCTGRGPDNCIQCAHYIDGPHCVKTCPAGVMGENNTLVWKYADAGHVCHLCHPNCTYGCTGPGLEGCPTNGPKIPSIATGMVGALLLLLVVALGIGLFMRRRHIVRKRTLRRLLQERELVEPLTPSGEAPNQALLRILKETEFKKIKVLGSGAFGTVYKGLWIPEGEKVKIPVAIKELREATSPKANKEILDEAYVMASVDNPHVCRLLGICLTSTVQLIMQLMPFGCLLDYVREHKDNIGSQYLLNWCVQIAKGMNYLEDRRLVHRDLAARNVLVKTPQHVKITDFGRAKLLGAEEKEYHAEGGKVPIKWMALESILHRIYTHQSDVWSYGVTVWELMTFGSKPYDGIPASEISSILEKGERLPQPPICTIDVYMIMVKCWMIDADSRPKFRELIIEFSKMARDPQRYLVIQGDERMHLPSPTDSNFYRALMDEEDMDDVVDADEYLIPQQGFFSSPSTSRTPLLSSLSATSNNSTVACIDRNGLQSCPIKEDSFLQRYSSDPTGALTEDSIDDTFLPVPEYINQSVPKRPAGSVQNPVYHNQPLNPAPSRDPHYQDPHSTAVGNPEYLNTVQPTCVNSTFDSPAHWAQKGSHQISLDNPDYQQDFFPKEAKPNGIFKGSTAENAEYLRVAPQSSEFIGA
Values below are the log10 of the recorded IC50, with nM as the unit.

// below: answered compounds
# smiles-entry, log10 IC50
measured = [
    ("CN1CCN(c2ccc(Nc3ncc(Cl)c(Nc4ccccc4C(=O)NO)n3)cc2)CC1", 1.84),
    ("O=C(O)c1ccccc1Nc1nc(Nc2ccc(OCC(=O)N3CCOCC3)cc2)ncc1Cl", 2.30),
    ("CNC(=O)c1ccccc1Nc1nc(Nc2ccc(CN3CCC(C(=O)NO)CC3)cc2)ncc1Cl", 2.07),
]

Query :: Recorded log10 IC50 for CNC(=O)c1ccccc1Nc1nc(Nc2ccc(N3CCC(C(=O)NO)CC3)cc2)ncc1Cl with Epidermal growth factor receptor (Homo sapiens, UniProt P00533, L858R/T790M), please?
Result :: 1.70

Query :: Recorded log10 IC50 for O=C(NO)c1ccccc1Nc1nc(Nc2ccc(CN3CCOCC3)cc2)ncc1Cl with Epidermal growth factor receptor (Homo sapiens, UniProt P00533, L858R/T790M), please?
Result :: 1.99

Query :: Recorded log10 IC50 for O=C(NO)c1ccccc1Nc1nc(Nc2ccc(OCCN3CCOCC3)cc2)ncc1Cl with Epidermal growth factor receptor (Homo sapiens, UniProt P00533, L858R/T790M), please?
Result :: 0.04

Query :: Recorded log10 IC50 for CN1CCN(CCOc2ccc(Nc3ncc(Cl)c(Nc4ccccc4C(=O)NO)n3)cc2)CC1 with Epidermal growth factor receptor (Homo sapiens, UniProt P00533, L858R/T790M), please?
Result :: 0.83

Query :: Recorded log10 IC50 for O=C(NO)c1ccccc1Nc1nc(Nc2ccc(OCC(=O)N3CCOCC3)cc2)ncc1Cl with Epidermal growth factor receptor (Homo sapiens, UniProt P00533, L858R/T790M), please?
Result :: 1.20

Query :: Recorded log10 IC50 for CNC(=O)c1ccccc1Nc1nc(Nc2ccc(OCCCN3CCC(C(=O)NO)CC3)cc2)ncc1Cl with Epidermal growth factor receptor (Homo sapiens, UniProt P00533, L858R/T790M), please?
Result :: 1.65
